We begin with a simple list: items and their reported pIC50.
- Protocol text: Compound was evaluated for concentration that caused 50% inhibition of bovine Farnesyltransferase
pIC50: −log10 of the molar value.

// below: answered compounds
CSCCC(NC(=O)[C@@H]1CC[C@@H]2CC[C@](Cc3ccccc3)(NC(=O)[C@@H](N)CS)C(=O)N21)C(=O)O (stereo partly drawn)
< 3.70
CSCC[C@H](NC(=O)[C@@H]1CC[C@@H]2CCC[C@H](NC(=O)[C@H](N)CS)C(=O)N21)C(=O)O
< 3.70

-- ask I have this compound here, "CSCC[C@H](NC(=O)[C@H](Cc1ccccc1)NC[C@@H](NC[C@@H](N)CS)C(C)C)C(=O)O" , and I need its recorded pIC50.
-- reply 7.68
